Target: human ether-à-go-go-related gene (hERG) potassium channel (human, UniProt Q12809)
Sequence (Q12809 whole entry, looked up): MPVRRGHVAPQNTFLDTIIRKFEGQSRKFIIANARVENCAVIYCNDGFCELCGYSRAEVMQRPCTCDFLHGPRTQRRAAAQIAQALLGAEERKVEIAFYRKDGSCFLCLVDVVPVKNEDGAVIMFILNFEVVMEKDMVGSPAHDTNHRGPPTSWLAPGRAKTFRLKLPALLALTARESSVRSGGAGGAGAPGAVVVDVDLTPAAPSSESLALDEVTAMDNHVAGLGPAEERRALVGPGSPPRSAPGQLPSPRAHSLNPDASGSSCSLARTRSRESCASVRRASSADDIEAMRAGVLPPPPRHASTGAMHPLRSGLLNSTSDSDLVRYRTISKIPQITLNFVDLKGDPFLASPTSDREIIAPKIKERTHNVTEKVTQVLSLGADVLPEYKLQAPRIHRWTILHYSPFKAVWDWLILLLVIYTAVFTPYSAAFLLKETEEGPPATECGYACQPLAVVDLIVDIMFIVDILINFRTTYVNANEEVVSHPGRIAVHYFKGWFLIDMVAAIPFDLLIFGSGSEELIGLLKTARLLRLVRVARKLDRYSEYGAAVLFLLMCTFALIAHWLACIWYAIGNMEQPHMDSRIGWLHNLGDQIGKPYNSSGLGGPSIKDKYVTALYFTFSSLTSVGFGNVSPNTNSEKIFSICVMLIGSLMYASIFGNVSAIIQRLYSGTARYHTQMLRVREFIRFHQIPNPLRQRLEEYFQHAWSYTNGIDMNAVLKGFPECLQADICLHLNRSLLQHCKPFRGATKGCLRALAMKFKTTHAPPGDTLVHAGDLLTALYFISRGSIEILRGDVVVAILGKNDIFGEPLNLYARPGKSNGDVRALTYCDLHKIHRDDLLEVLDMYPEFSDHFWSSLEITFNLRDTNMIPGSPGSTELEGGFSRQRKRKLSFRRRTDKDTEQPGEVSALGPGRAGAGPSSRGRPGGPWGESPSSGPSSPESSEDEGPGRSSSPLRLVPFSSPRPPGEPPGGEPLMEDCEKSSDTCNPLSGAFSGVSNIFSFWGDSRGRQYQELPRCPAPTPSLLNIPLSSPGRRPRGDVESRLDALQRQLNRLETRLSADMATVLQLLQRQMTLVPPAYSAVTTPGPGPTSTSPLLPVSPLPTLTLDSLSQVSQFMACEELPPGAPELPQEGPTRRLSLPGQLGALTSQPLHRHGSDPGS
Assay: primary screen, population patch clamp on CHO cells stably expressing hERG; higher = less effect of the substance
About 14,000 (4.5%) of roughly 310,000 compounds showed an effect of 50% or more. The effect is printed as a negative number. Only a selection was taken, and strong results are over-represented in it overall.
RECORDED METRIC: hERG current change (%, negative = inhibition) at 10uM (%)
API: value field is a number in %; no unit string.

Can you share its hERG current change (%, negative = inhibition) at 10uM? I mean this compound: CC(OC(=O)/C=C/c1ccc2ccccc2n1)C(=O)Nc1ccc(S(N)(=O)=O)cc1 (centres unmarked)
19.1

Any idea what its hERG current change (%, negative = inhibition) at 10uM is? The compound is Cl.OC(CNC1CCCC1)COCCOc1ccc(Br)cc1 (centres unmarked)
-27.4

Dear colleague, I am looking for the recorded hERG current change (%, negative = inhibition) at 10uM of the following compound: CCN(CC)S(=O)(=O)c1ccc(-c2nnc(SCC(=O)Nc3nnc(C)s3)n2CC)cc1
12.2

# lookup: hERG current change (%, negative = inhibition) at 10uM of CCN(Cc1ccccc1)C(=O)COC(=O)c1c(C)nsc1NC
-6.97

Bench note: what hERG current change (%, negative = inhibition) at 10uM did COc1ccc(C(=O)N/N=C\c2coc3ccccc3c2=O)cc1 show?
6.36

###

Task for the reader: assign each of the following compounds its reported hERG current change (%, negative = inhibition) at 10uM.
Target: human ether-à-go-go-related gene (hERG) potassium channel (human, UniProt Q12809);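 also: peak tail current of the secondary pulse compared with the same well before compound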
Test: primary screen, population patch clamp on CHO cells stably expressing hERG; higher = less effect of the substance
Screen size: about 310,000 compounds; about 14,000 (4.5%) showed an effect of 50% or more. Effects have a minus sign here. What follows is part of a selection rich in strong results, with near analogues and random picks from the rest.
Provide a numeric answer, followed by its unit.

# query: hERG current change (%, negative = inhibition) at 10uM of entry COc1ccc(C(=O)NCC(=O)OCc2ccc(Cl)cc2Cl)cc1OC
-6.66%

Fill blank: measured hERG current change (%, negative = inhibition) at 10uM of the compound O=C(CNC(=O)c1ccccc1)OCc1cc(=O)n2cc(Br)ccc2n1 is ____.
-31.6%

Any idea what its hERG current change (%, negative = inhibition) at 10uM is? The compound is COc1ccc(C(=O)NCC(=O)NCC(=O)OCC(=O)c2ccc(Br)cc2)cc1
15.3%

Which hERG current change (%, negative = inhibition) at 10uM value belongs to O=C(CNC(=O)c1ccccc1)OCc1ccc([N+](=O)[O-])cc1 ?
-33.9%

// hERG current change (%, negative = inhibition) at 10uM lookup, key: COc1ccc(C(=O)NCC(=O)OCC(=O)c2cc(OC)c(OC)c(OC)c2)cc1OC
28.5%

###

Molecular target: human ether-à-go-go-related gene (hERG) potassium channel (human, UniProt Q12809);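 also: peak tail current of the secondary pulse compared with the same well before compound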
Assay: primary screen, population patch clamp on CHO cells stably expressing hERG; higher = less effect of the substance
Out of some 310,000 compounds screened, about 14,000 (4.5%) showed an effect of 50% or more. Effects have a minus sign here. The entries come from a sample that favours strong results as a whole.
Mark no for hERG current change (%, negative = inhibition) at 10uM values under 10%, and yes for everything at or above.

Evaluate COc1cc(-c2noc(C)c2C#Cc2ccsc2)cc(OC)c1OC : hERG current change (%, negative = inhibition) at 10uM at minimum 10%?
yes

Threshold query (hERG current change (%, negative = inhibition) at 10uM >= 10%) on CC(Oc1ccccc1F)C(=O)NC1CCS(=O)(=O)C1 (stereo not shown)
yes

Assess whether reported hERG current change (%, negative = inhibition) at 10uM for C=CCN(CC=C)C(=S)NCCc1ccc(OC)c(OC)c1 sits at 10% or higher.
no

Is it the case that CNC(=O)c1c(I)c(C(=O)NCC(=O)Nc2c(I)c(C(=O)O)c(I)c(C(=O)NCCO)c2I)c(I)c(N(C)C(C)=O)c1I has hERG current change (%, negative = inhibition) at 10uM reaching or exceeding 10%?
no

Please indicate if the recorded hERG current change (%, negative = inhibition) at 10uM for CCOC(=O)C1CCN(C(=S)NC2CCCC2)CC1 meets or exceeds 10%.
no

Say whether O=C(Cc1ccccc1)N1CCN(C(=O)c2cccs2)CC1 shows hERG current change (%, negative = inhibition) at 10uM of 10% or more.
no

Given COc1nc2ccccc2nc1N1CCN(c2ccc(F)cc2)CC1 , state whether its hERG current change (%, negative = inhibition) at 10uM is at least 10%.
yes

Reported hERG current change (%, negative = inhibition) at 10uM at or above 10%? CC(NC(=O)C1CCC(=O)N1Cc1ccccc1Cl)c1ccccc1 (stereo not shown)
yes

Does hERG current change (%, negative = inhibition) at 10uM meet or surpass 10% for NC(=O)C1CCN(C(=S)NC2CC3C=CC2C3)CC1 (stereo not shown) ?
yes

Check if hERG current change (%, negative = inhibition) at 10uM >= 10% (inclusive). Item: CC(C)(C)N1[C@@H](CC(=O)O)c2cc(C(F)(F)F)ccc2S1(=O)=O
yes

###

Molecular target: human ether-à-go-go-related gene (hERG) potassium channel (human, UniProt Q12809);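 also: peak tail current of the secondary pulse compared with the same well before compound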
Test: primary screen, population patch clamp on CHO cells stably expressing hERG; higher = less effect of the substance
Screen size: about 310,000 compounds; about 14,000 (4.5%) showed an effect of 50% or more. The effect is printed as a negative number. This excerpt belongs to a sample that is enriched for strong results.
Exercise: for every item that follows, state its recorded hERG current change (%, negative = inhibition) at 10uM.
A number alone suffices; assume %.

Record request: hERG current change (%, negative = inhibition) at 10uM value, item O=C(CN1CCC(n2nnc3cc(C(F)(F)F)ccc32)CC1)Nc1ccc2c(c1)OCCO2
-36.5

Need hERG current change (%, negative = inhibition) at 10uM of Cc1ccc2c(c1)nnn2C1CCN(CC(=O)Nc2ccc3c(c2)OCCO3)CC1 , thanks.
-55.5

Look at this compound and give its reported hERG current change (%, negative = inhibition) at 10uM. CCCCN(CC)Cc1ccc(CNC(=S)Nc2c(C)cc(C)cc2C)o1
-54.8

Bench note: what hERG current change (%, negative = inhibition) at 10uM did Cc1ccc2c(c1)nnn2C1CCN(C(=O)C23CC4CC(CC(C4)C2)C3)CC1 show?
1.11

Requested read-out: hERG current change (%, negative = inhibition) at 10uM. Entry: O=C(/C=C/c1cccc([N+](=O)[O-])c1)NCCSCc1cccc(Cl)c1
-18.9

Endpoint output: hERG current change (%, negative = inhibition) at 10uM of CCCCN(CC)Cc1ccc(CNC(=S)Nc2ccccc2F)o1 . Value?
-16.3

Using the record for CCCc1oc(C(=O)O)cc1CN.Cl , report its hERG current change (%, negative = inhibition) at 10uM.
5.96

Can you look up the measured hERG current change (%, negative = inhibition) at 10uM of Cc1ccc2c(c1)nnn2C1CCN(CC(=O)N2CCN(c3ccc(F)cc3)CC2)CC1 for me?
-70.3

# lookup: hERG current change (%, negative = inhibition) at 10uM of C=CCSc1nc(N(CC)CC)c2sccc2n1
-12.4

Recorded hERG current change (%, negative = inhibition) at 10uM for Cc1ccc(N(Cc2cc(=O)[nH]c3ccccc23)C(=O)c2ccco2)cc1 , please?
-34.4

###

Molecular target: human ether-à-go-go-related gene (hERG) potassium channel (human, UniProt Q12809);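 also: peak tail current of the secondary pulse compared with the same well before compound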
Experiment: primary screen, population patch clamp on CHO cells stably expressing hERG; higher = less effect of the substance
The whole screen tested about 310,000 compounds, of which about 14,000 (4.5%) showed an effect of 50% or more. The effect is printed as a negative number. The list comes from a sample in which strong results are over-represented; it also holds close analogues and randomly drawn compounds.
RECORDED METRIC: hERG current change (%, negative = inhibition) at 10uM (%)
Supply the numeric figure in %, leaving out any unit text.

Please look up its hERG current change (%, negative = inhibition) at 10uM: Cn1c(C(=O)N2CCC(C(=O)N3CCN(Cc4ccc5c(c4)OCO5)CC3)CC2)cc2sccc21
-60.6

What does the data say about its hERG current change (%, negative = inhibition) at 10uM? Entry: O=C(c1sccc1Br)N1CCN(Cc2ccc3c(c2)OCO3)CC1
-11

// hERG current change (%, negative = inhibition) at 10uM lookup, key: Cl.Cn1c(C(=O)N2CCN(Cc3ccc4c(c3)OCO4)CC2)cc2sccc21
-8.46

Given the molecule Cc1noc(C)c1COc1ccc(C(=O)OCC(=O)NCCN2C(=O)CSC2=O)cc1 , what is its reported hERG current change (%, negative = inhibition) at 10uM?
-8.06

Endpoint output: hERG current change (%, negative = inhibition) at 10uM of CC(C)C[C@H](NC(=O)c1nc[nH]c1C(=O)NCc1ccc(CNC(=O)OC(C)(C)C)cc1)C(=O)OCc1ccccc1 . Value?
2.91

# lookup: hERG current change (%, negative = inhibition) at 10uM of COc1cccc(-n2c(SCC(=O)NCc3cccs3)nc3ccccc3c2=O)c1
-2.74

// lookup hERG current change (%, negative = inhibition) at 10uM for O=C(CC(Cc1ccccc1)C(=O)O)Nc1ccccc1 (stereo not drawn)
25.2

Look up hERG current change (%, negative = inhibition) at 10uM for this molecule: O=C(O)/C=C/C(=O)N1CCN(Cc2ccc3c(c2)OCO3)CC1
4.54

Endpoint output: hERG current change (%, negative = inhibition) at 10uM of COc1ccccc1C1CC(c2cccs2)=Nc2ccccc2S1 (stereo not drawn) . Value?
14.4

Every entry's value here was drawn from paper PMC4336329.
